Method Description: Tmax in Sprague-Dawley rat at 10 mg/kg, po
Format: ADME, organism-based
Parameters: dose 10 mg/kg, route oral
Measurement Parameters: in vivo
Assay Metric: Tmax (min)
Output spec: scalar in min, unitless text.

## Input Assign Tmax to the following record: CC1Cc2c(Br)cccc2N1C(=O)Cc1nc(N2CCOCC2)sc1C(=O)O (single isomer, unassigned; enantiomer 1)
## Output 15

====

Target Of Assay: Phosphatidylinositol 4,5-bisphosphate 3-kinase catalytic subunit gamma isoform (Homo sapiens, UniProt P48736)
Sequence (P48736 whole entry, canonical isoform): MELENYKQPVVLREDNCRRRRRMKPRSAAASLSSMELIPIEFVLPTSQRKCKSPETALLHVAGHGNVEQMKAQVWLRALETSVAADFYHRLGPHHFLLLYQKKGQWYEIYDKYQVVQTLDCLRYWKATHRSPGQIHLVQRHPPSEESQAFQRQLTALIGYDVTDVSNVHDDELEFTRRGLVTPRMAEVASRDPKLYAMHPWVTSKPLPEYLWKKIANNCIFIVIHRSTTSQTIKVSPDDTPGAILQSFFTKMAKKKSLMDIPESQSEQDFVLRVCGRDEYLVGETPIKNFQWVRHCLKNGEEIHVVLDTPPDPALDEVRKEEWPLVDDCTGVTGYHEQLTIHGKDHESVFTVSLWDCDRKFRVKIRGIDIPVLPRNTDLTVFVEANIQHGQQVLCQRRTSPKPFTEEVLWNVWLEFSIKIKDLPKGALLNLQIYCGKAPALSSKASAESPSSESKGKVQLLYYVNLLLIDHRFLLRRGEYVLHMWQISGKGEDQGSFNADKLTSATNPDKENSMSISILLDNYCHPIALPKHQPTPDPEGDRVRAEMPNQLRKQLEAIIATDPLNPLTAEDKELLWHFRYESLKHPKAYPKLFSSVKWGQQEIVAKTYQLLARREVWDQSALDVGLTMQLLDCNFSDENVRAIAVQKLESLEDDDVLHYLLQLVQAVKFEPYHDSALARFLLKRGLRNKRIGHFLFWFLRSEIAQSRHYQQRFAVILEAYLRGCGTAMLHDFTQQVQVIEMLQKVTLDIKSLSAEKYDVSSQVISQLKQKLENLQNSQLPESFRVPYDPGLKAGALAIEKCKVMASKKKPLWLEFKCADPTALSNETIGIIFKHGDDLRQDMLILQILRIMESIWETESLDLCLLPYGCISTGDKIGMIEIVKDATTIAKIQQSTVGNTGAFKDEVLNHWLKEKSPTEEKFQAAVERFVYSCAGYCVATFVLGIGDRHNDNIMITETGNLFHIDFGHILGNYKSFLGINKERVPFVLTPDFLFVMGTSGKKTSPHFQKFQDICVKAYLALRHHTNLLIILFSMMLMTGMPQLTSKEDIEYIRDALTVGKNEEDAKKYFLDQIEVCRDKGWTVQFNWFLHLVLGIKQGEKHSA
Method Description: Inhibition of human PI3Kgamma after 15 mins
Assay Metric: IC50

## Input Provide measured IC50 value, entry: CC1Cc2c(Br)cccc2N1C(=O)Cc1nc(N2CCOCC2)sc1C(N)=O (single isomer, unassigned; (-))
## Output 3.26 µM

## Input Look up and report measured IC50 for this entry: O=C(O)c1sc(N2CCOCC2)nc1CC(=O)N1CCc2ccccc21
## Output > 10 µM

## Input Dear colleague, please send me the reported IC50 for CC1Cc2c(Br)cccc2N1C(=O)Cc1nc(N2CCOCC2)sc1C(N)=O (single isomer, unassigned; enantiomer 2) when you can.
## Output > 10 µM

## Input Give IC50 for O=C(O)c1sc(N2CCOCC2)nc1CC(=O)N1CCc2cc(F)ccc21
## Output > 10 µM

## Input Look up and report measured IC50 for this entry: NC(=O)c1sc(N2CCOCC2)nc1CC(=O)N1CCc2cc(Br)ccc21
## Output > 10 µM

Continuing:
## Input Please supply the value of reported IC50 for the item NC(=O)c1sc(N2CCOCC2)nc1CC(=O)N1CCc2cc(Cl)ccc21
## Output > 10 µM

## Input Read the entry CC1Cc2cc(F)ccc2N1C(=O)Cc1nc(N2CCOCC2)sc1C(N)=O (centres undefined) and write its reported IC50.
## Output > 10 µM

## Input // fetch IC50 given entry CC1Cc2c(Br)cccc2N1C(=O)Cc1nc(N2CCOCC2)sc1C(=O)O (single isomer, unassigned; enantiomer 2)
## Output 10 µM

## Input Return IC50 for the following compound: CC1Cc2c(Cl)cccc2N1C(=O)Cc1nc(N2CCOCC2)sc1C(N)=O (centres undefined)
## Output > 10 µM

## Input Return value of IC50 for input O=C(O)c1sc(N2CCOCC2)nc1CC(=O)N1CCc2cc(Br)ccc21 , no commentary.
## Output > 10 µM

## Input Item NC(=O)c1sc(N2CCOCC2)nc1CC(=O)Nc1ccc(F)c(Cl)c1 : provide IC50
## Output > 10 µM

## Input Answer with reported IC50 of NC(=O)c1sc(N2CCOCC2)nc1CC(=O)N1CCc2c(Cl)cccc21
## Output > 10 µM

## Input Input O=C(O)c1sc(N2CCOCC2)nc1CC(=O)N1CCc2c(Cl)cccc21 , output reported IC50.
## Output > 10 µM

## Input Determine its reported IC50: O=C(O)c1sc(N2CCOCC2)nc1CC(=O)N1CCc2c(Br)cccc21
## Output > 10 µM

## Input # return recorded IC50 for input CC1Cc2ccccc2N1C(=O)Cc1nc(N2CCOCC2)sc1C(N)=O (racemic)
## Output > 10 µM

## Input Dear colleague, please send me the reported IC50 for CC1Cc2c(Br)cccc2N1C(=O)Cc1nc(N2CCOCC2)sc1C(=O)O (single isomer, unassigned; enantiomer 1) when you can.
## Output 4.35 µM

## Input Give reported IC50 value for CC1Cc2c(Cl)cccc2N1C(=O)Cc1nc(N2CCOCC2)sc1C(=O)O (centres undefined)
## Output > 10 µM

## Input Give the reported IC50 for this compound. CC1Cc2ccccc2N1C(=O)Cc1nc(N2CCOCC2)sc1C(=O)O (racemic)
## Output > 10 µM

## Input State, in one line, measured IC50 of NC(=O)c1sc(N2CCOCC2)nc1CC(=O)N1CCc2c(F)cccc21
## Output > 10 µM

====

Method Description: Thermodynamic solubility of the compound in 50 mM Phosphate buffer at pH 7.4 after 16 hrs by HPLC analysis
Assay type: physicochemical
Measurement Parameters: phosphate buffer, pH 7.4; read-out: Therm_solubility
Listed next: entries and their corresponding solubility thermodynamic at 16 h.
Could you kindly put the unit after your number?

## Input Note down solubility thermodynamic at 16 h recorded for NC(=O)c1sc(N2CCOCC2)nc1CC(=O)N1CCc2ccccc21
## Output 3 µM

Others:
## Input Provide one value: measured solubility thermodynamic at 16 h of O=C(O)c1sc(N2CCOCC2)nc1CC(=O)N1CCc2c(Cl)cccc21
## Output 1480 µM

## Input Give the reported solubility thermodynamic at 16 h for this compound. NC(=O)c1sc(N2CCOCC2)nc1CC(=O)N1CCc2cc(F)ccc21
## Output 7 µM

## Input Quote solubility thermodynamic at 16 h reported for O=C(O)c1sc(N2CCOCC2)nc1CC(=O)N1CCc2cc(F)ccc21 please.
## Output 5110 µM

## Input Indicate its recorded solubility thermodynamic at 16 h; the compound in question is CC1Cc2c(Br)cccc2N1C(=O)Cc1nc(N2CCOCC2)sc1C(=O)O (single isomer, unassigned; enantiomer 2)
## Output 4290 µM

====

// IC50 lookup, one value per entry
Target Of Assay: Phosphatidylinositol 4,5-bisphosphate 3-kinase catalytic subunit gamma isoform (Homo sapiens, UniProt P48736)
Method Description: Inhibition of human PI3Kgamma after 15 mins
Return type: number; implicit unit µM.

## Input Give IC50 for the following compound: CC1CN(C(=O)Cc2nc(N3CCOCC3)sc2C(N)=O)c2ccccc21 (racemic)
## Output 4.2

Now for a further compound.
## Input Fill in IC50 for record NC(=O)c1sc(N2CCOCC2)nc1CC(=O)N1CCc2c(Br)cccc21
## Output 8.13

====

Method Description: Cmax in Sprague-Dawley rat at 10 mg/kg, po
Assay type: ADME, organism-based
Parameters: dose 10 mg/kg, route oral
Measurement Parameters: in vivo
Assay Metric: Cmax (ng/mL)
Report the value in ng/mL with no unit label.

## Input Specify reported Cmax for the molecule shown: CC1Cc2c(Br)cccc2N1C(=O)Cc1nc(N2CCOCC2)sc1C(=O)O (single isomer, unassigned; enantiomer 1)
## Output 15100

====

Method Description: Thermodynamic solubility of the compound in 50 mM Phosphate buffer at pH 7.4 after 16 hrs by HPLC analysis
Format: physicochemical
Measurement Parameters: phosphate buffer, pH 7.4; read-out: Therm_solubility
Listed here are compounds together with their documented solubility thermodynamic at 16 h.
Report as a plain number; the unit µM is understood.

## Input Return reported solubility thermodynamic at 16 h. Input compound: CC1Cc2cc(F)ccc2N1C(=O)Cc1nc(N2CCOCC2)sc1C(N)=O (stereo unspecified)
## Output 45

## Input Respond only with solubility thermodynamic at 16 h recorded for CC1Cc2cc(F)ccc2N1C(=O)Cc1nc(N2CCOCC2)sc1C(=O)O (stereo unspecified)
## Output 4930

---
## Input Tell me solubility thermodynamic at 16 h reported for CC1Cc2c(Cl)cccc2N1C(=O)Cc1nc(N2CCOCC2)sc1C(N)=O (stereo unspecified)
## Output 2

====

Target Of Assay: Phosphatidylinositol 4,5-bisphosphate 3-kinase catalytic subunit alpha isoform (Homo sapiens, UniProt P42336)
Sequence (P42336 whole entry, canonical isoform): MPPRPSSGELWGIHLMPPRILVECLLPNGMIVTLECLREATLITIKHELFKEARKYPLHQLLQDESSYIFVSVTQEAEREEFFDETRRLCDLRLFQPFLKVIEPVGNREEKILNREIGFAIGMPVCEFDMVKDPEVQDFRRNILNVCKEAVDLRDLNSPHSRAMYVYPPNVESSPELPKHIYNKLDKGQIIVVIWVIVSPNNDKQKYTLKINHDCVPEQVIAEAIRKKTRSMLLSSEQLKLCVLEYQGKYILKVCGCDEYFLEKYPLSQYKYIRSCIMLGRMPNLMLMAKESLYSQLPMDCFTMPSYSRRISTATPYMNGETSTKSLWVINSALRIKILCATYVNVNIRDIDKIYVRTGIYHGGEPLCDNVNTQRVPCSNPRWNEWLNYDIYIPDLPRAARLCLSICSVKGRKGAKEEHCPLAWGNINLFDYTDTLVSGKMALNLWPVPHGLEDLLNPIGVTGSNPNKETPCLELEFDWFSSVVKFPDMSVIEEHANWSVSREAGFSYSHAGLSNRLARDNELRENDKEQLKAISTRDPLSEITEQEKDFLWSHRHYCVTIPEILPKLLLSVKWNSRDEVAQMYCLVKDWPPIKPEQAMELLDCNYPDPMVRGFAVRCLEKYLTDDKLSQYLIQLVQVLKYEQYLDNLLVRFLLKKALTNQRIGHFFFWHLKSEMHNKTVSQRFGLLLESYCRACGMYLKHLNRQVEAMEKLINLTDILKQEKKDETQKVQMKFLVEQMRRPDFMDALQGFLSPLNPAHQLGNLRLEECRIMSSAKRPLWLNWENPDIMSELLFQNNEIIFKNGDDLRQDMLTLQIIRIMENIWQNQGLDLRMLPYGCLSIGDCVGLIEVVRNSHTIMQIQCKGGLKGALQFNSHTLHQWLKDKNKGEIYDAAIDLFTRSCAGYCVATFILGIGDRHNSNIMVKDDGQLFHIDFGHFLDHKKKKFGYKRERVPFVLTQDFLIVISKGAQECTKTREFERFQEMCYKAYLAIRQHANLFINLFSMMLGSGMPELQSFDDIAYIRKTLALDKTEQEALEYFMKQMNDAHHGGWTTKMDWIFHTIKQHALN
Method Description: Inhibition of human PI3Kalpha after 15 mins
Assay Metric: pIC50
On this scale, pIC50 is minus log10 of a concentration expressed in M (mol/L).

## Input Please report the measured pIC50 for NC(=O)c1sc(N2CCOCC2)nc1CC(=O)N1CCc2cc(F)ccc21
## Output 5.16

## Input Report measured pIC50; entry is CC1Cc2c(Br)cccc2N1C(=O)Cc1nc(N2CCOCC2)sc1C(=O)O (single isomer, unassigned; enantiomer 1)
## Output 6.40

## Input Output measured pIC50 for this item: NC(=O)c1sc(N2CCOCC2)nc1CC(=O)N1CCc2c(F)cccc21
## Output 5.14

## Input For CC1Cc2c(Br)cccc2N1C(=O)Cc1nc(N2CCOCC2)sc1C(N)=O (single isomer, unassigned; enantiomer 2) , write its pIC50.
## Output 5.88

Continuing:
## Input Report measured pIC50; entry is O=C(O)c1sc(N2CCOCC2)nc1CC(=O)N1CCc2c(Cl)cccc21
## Output 5.66

====

Method Description: Volume of distribution at steady state in Sprague-Dawley rat at 3 mg/kg, iv
Type: ADME, organism-based
Set-up: dose 3 mg/kg, route intravenous
Measurement Parameters: in vivo, read-out: Vdss
Assay Metric: Vd (L/kg)
The answer is to be given in L/kg; state only the numeric part.

## Input # return recorded Vd for input CC1Cc2c(Br)cccc2N1C(=O)Cc1nc(N2CCOCC2)sc1C(=O)O (single isomer, unassigned; enantiomer 1)
## Output 0.65

====

Target Of Assay: Cytochrome P450 3A4 (Homo sapiens)
Sequence (P08684 whole entry): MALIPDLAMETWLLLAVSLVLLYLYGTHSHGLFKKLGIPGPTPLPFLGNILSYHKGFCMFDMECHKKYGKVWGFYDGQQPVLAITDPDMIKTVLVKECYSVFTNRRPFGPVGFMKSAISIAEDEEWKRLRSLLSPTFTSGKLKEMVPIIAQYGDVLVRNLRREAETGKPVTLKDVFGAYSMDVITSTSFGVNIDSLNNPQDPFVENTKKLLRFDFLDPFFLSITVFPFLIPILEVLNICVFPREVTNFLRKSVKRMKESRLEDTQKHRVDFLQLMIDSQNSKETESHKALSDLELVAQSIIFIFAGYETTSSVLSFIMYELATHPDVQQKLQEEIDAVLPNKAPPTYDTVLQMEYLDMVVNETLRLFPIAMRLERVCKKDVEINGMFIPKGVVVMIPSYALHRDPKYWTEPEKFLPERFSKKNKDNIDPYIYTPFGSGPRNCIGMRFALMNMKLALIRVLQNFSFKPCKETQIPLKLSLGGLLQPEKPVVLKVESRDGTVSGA
Method Description: Inhibition of human recombinant CYP3A4
Each record here notes measured pIC50.
Lab note — pIC50 values are minus log10 of concentrations in M.

Below, 3 compounds whose answers are already recorded.
## Input Give pIC50 for CC1Cc2cc(F)ccc2N1C(=O)Cc1nc(N2CCOCC2)sc1C(N)=O (centres undefined)
## Output 7.40

## Input Kindly indicate its recorded pIC50. Item: CC1Cc2c(Br)cccc2N1C(=O)Cc1nc(N2CCOCC2)sc1C(N)=O (single isomer, unassigned; enantiomer 2)
## Output 4.40

## Input // fetch pIC50 given entry NC(=O)c1sc(N2CCOCC2)nc1CC(=O)N1CCc2ccccc21
## Output 4.40

# input for lookup
## Input Read the entry O=C(O)c1sc(N2CCOCC2)nc1CC(=O)N1CCc2c(Cl)cccc21 and write its reported pIC50.
## Output 4.40

Value source: ChEMBL document CHEMBL3124816
